Target system: CtBP2 (C-terminal binding protein 2) (Homo sapiens)
Construct: full-length CtBP2 with strep-tag and HA-tag tandemly fused to the C-terminus (baculovirus)
Experimental protocol: microscale thermophoresis; supported by DSF (Kd […])
Assay readout: pKd
Answers are plain numbers, as −log10 of the molar value.

Problem: Observed pKd on CtBP2 (C-terminal binding protein 2) (Homo sapiens) for "CCCCCCCC/C=C\CCCCCCCC(=O)SCCNC(=O)CCNC(=O)[C@H](O)C(C)(C)COP(=O)(O)OP(=O)(O)OC[C@H]1O[C@@H](n2cnc3c(N)ncnc32)[C@H](O)[C@@H]1OP(=O)(O)O" , please.
Result: 4.73
